Molecular target: SARS-CoV-2 spike protein on pseudovirus (SARS-CoV-2, UniProt P0DTC2 13-1273)
Test: cell-based or functional assay
Quick rule for you: IgG IC50, SARS-CoV-2 pseudovirus neutralization at 2 ng/mL or higher means y, lower means n.

Reference set (4 entries):
Binder	Classification
Ab10 IgG (antibody, V domains shown) VH: QITLKESGPTLVKPTQTLTLTCTFSGFSLSTSGVGVGWIRQPPGKALEWLALIYWDDDKRYSPSLKSRLTITKDTSKNQVVLTMTNMDPVDTATYYCAHHKIERIFDYWGQGTLVTVSS VL: QSALAQPASVSGSPGQSITISCTGTSSDVGAYNYVSWYQQHPGKAPKLMIYDVSKRPSGVSNRFSGSKSGNTASLTISGLQAEDEADYYCSSYTTSSTVFGGGTKLTVL	y
Ab3 IgG (antibody, V domains shown) VH: QVQLVESGGGLVKPGGSLRLSCAASGFTFSDYYMSWIRQAPGKGLEWVSYITYSGSTIYYADSVKGRFTISRDNAKSSLYLQMNSLRAEDTAVYYCARDRGTTMVPFDYWGQGTLVTVSS VL: DIQMTQSPSSLSASVGDRVTITCQASQDITNYLNWYQQKPGKAPKLLIYAASNLETGVPSRFSGSGSGTDFTFTISGLQPEDIATYYCQQYDNLPLTFGGGTKVEIK	n
Ab4 IgG (antibody, V domains shown) VH: QVQLVESGGGVVQPGRSLRLSCAASGFTFSNYAMYWVRQAPGKGLEWVAVISYDGSNKYYADSVKGRFTISRDNSKNTLYLQMNSLRTEDTAVYYCASGSDYGDYLLVYWGQGTLVTVSS VL: QSALTQPASVSGSPGQSITISCTGTSSDVGGYNYVSWYQQHPGKAPKLMIYDVSKRPSGVSNRFSGSKSGNTASLTISGLQSEDEADYYCNSLTSISTWVFGGGTKLTVL	n
Ab7 IgG (antibody, V domains shown) VH: EVQLVESGGGLVQPGGSLRLSCAVSGFTVSSNYMSWVRQAPGKGLEWVSVIYTGGGTYYADSVKGRFTISRDNSKNTLYLQMNTLRAEDTTVYYCARGDGSYYRAFDYWGQGTLVTVSS VL: DIQMTQSPSSLSASVGDRVTITCRASQSISNYLNWYHQKPGKAPKLLIYAASSLQSGVPSRFSGSGSGTDFTLTISSLQPEDFATYYCQQSYSPPPTFGPGTKVEIK	n

Please examine the following record next.
Q: Hi, just wondering whether Ab11 IgG (antibody, V domains shown) VH: QVQLVQSGAEVKKPGSSVKVSCKASGGTFSSYAISWVRQAPGQGLEWMGGNIPIFGTANYAQKFQGRVTITADESTSTAYMELSSLRSEDTAVYYCARGVGYRGVIPLNWFDPWGQGTVVTVSS VL: EIVMTQSPATLSVSPGERATLSCRASQSVSSDLAWYQHKPGQAPRLLIYGASTRATGIPVRFSGSGSGTEFTLTISSLQSEDFAVYYCQQYNNWPPFTFGGGTKVEIK shows IgG IC50, SARS-CoV-2 pseudovirus neutralization of 2 ng/mL or higher.
Ans: y
